- test_target: Human immunodeficiency virus type 1 integrase (Human immunodeficiency virus 1, UniProt Q7ZJM1)
- Sequence (Q7ZJM1 whole entry): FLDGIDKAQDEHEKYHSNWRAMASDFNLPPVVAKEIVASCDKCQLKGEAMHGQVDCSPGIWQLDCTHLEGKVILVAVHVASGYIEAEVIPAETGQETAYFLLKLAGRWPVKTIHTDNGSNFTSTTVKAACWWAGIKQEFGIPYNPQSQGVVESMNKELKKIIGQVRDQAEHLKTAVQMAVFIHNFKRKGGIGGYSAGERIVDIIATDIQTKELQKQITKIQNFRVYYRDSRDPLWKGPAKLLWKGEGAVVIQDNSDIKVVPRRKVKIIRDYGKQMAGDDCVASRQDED
- assay_summary: Inhibition of HIV integrase strand transfer activity
outcome_measure: pIC50
// pIC50: -log10(molar conc.)

**Query** Any idea what pIC50 was measured for O=C(NCc1c(F)cc(F)cc1F)c1cn2c(c(O)c1=O)C(=O)N1[C@H]3CC[C@H](C3)O[C@@H]1C2 [BICTEGRAVIR] ?
**Result** 8.12

----------
IC50 listing for selected compounds.
- assay_summary: Inhibition of HIV reverse transcriptase RNase H activity
- Set-up: species or system Human immunodeficiency virus
Lab book: enter the figure in nM, no units written.

COc1ccc(Cc2nc(O)c(O)c(C(=O)O)n2)cc1Br	1400
NCc1ccc(-c2ccc(Cc3cc(=O)n(O)c4ncccc34)cc2)cc1	45
CC(C)c1ccc(O)c(=O)c(O)c1 [BETA-THUJAPLICINOL]	3800

**Query** Any idea what IC50 was measured for NS(=O)(=O)c1ccc(-c2ccc(Cn3cc(O)c(=O)c(C(=O)O)c3)cc2)cc1 ?
**Result** 650

**Query** Same lookup for CCOC(=O)C(=O)CC(=O)/C=C/c1cccn1Cc1ccccc1Cl , please.
**Result** 7300

**Query** Same lookup for O=C1Cc2cc(Cc3ccc(-c4ccccc4)cc3)ccc2C(=O)N1O , please.
**Result** 800
